Data origin: ChEMBL document CHEMBL4359906

procedure summary: Selectivity index, ratio of MHC10 for human RBC to geometric mean of peptide MIC for gram positive bacteria
Type: toxicity
measurement parameters: human red blood cells, read-out: Selectivity Index
Where a SMILES comes first, the peptide text is derived from it.
value kind: selectivity ratio
A bare number is all that is needed in reply.

Example entries begin here.
compound	selectivity ratio
CC[C@H](C)[C@H](NC(=O)[C@H](CCCNC(=N)N)NC(=O)[C@H](CCCCN)NC(=O)[C@H](CC(C)C)NC(=O)[C@H](CC(C)C)NC(=O)CN)C(=O)N[C@@H](CCCCN)C(=O)N[C@H](C(=O)N[C@@H](CC(C)C)C(=O)N[C@@H](CC(C)C)C(N)=O)[C@@H](C)O [ANOPLIN] (H-GLLKRIKTLL-NH2)	11.3
CCCCCCCCCC(=O)NCC(=O)N[C@@H](CC(C)C)C(=O)N[C@@H](CC(C)C)C(=O)N[C@H](CCCCN)C(=O)N[C@@H](CCCNC(=N)N)C(=O)N[C@H](C(=O)N[C@H](CCCCN)C(=O)N[C@H](C(=O)N[C@@H](CC(C)C)C(=O)N[C@@H](CC(C)C)C(N)=O)[C@@H](C)O)[C@@H](C)CC	8
CCCCCCCC(=O)NCC(=O)N[C@@H](CC(C)C)C(=O)N[C@@H](CC(C)C)C(=O)N[C@H](CCCCN)C(=O)N[C@@H](CCCNC(=N)N)C(=O)N[C@H](C(=O)N[C@H](CCCCN)C(=O)N[C@H](C(=O)N[C@@H](CC(C)C)C(=O)N[C@@H](CC(C)C)C(N)=O)[C@@H](C)O)[C@@H](C)CC	15.4

Now, please, on to the next compound.
Prompt: Item CCCCCCCCCCCC(=O)NCC(=O)N[C@@H](CC(C)C)C(=O)N[C@@H](CC(C)C)C(=O)N[C@H](CCCCN)C(=O)N[C@@H](CCCNC(=N)N)C(=O)N[C@H](C(=O)N[C@H](CCCCN)C(=O)N[C@H](C(=O)N[C@@H](CC(C)C)C(=O)N[C@@H](CC(C)C)C(N)=O)[C@@H](C)O)[C@@H](C)CC : provide selectivity ratio
Completion: 2.18
